# PROTOCOL: Nile Red efflux blockade in pump-expressing yeast – validation compound set, multiplex, phenotypic, pilot screen (AID 588506);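 also: Nile Red retained in cells so higher fluorescence means more efflux inhibition; 0 = negative control wells and 1 = enniatin B 25 µM full block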
# SETUP CONDITIONS: S. cerevisiae pump-expressing triplex, Nile Red efflux flow cytometry; at 10 µM; stronger effect = higher value; the pumps come from Candida albicans
Labelling field: enter Yes if recorded efflux inhibition (fraction of control) is less than -0.1. Enter No if it equals or exceeds that cut-off.

• Cc1nc(-c2coc3c(CN(C)C)c(O)ccc3c2=O)cs1 = Yes
• CC(=O)OCC(=O)[C@H]1CC[C@H]2[C@@H]3CCC4=CC(=O)CC[C@]4(C)[C@H]3CC[C@]12C = Yes
• CCc1cc(C(N)=S)ccn1 = No
• COCC1CCCN(Cc2cn[nH]c2-c2cc3ccccc3o2)C1 (stereo not given) = No
• COC(=O)C1=C(C)N(C)C(=S)NC1c1ccc(Cl)cc1 (stereo not given) = No
• Cn1c(=O)c2[nH]cnc2n(C)c1=O = Yes
• CCOC(=O)C1=C2c3ccc4ccccc4c3CC(C)(C)N2C(=O)C1=O = Yes
• O=C(O)Cc1ccc(O)c(F)c1 = No
• CN(C)CCOC(c1ccccc1)c1ccccc1 (tested in a mixture with another compound) = No
• O=C(O)Cc1ccc(-c2ccccc2)cc1 = Yes
• COc1ccc(NC(=O)N2CCCCC2c2cccnc2)cc1 (stereo not given) = No
• CN=C(NC#N)NCCSCc1nc[nH]c1C = Yes
• COc1ccc(C2=C(CN(C)C)C(c3ccccc3)c3ccccc3O2)cc1 (stereo not given) = Yes
• CCNC(=O)C12CCC(C)(C(=O)O1)C2(C)C (stereo not given) = Yes

* * *

Catalogue of double positive events readings, one per entry.
# PROTOCOL: reduced mouse 2C T cell binding to pMHC/ICAM-1 vesicles – MLPCN validation set, flow cytometry, LFA-1/ICAM-1 modulator project, pilot screen (AID 2523)
# SETUP CONDITIONS: 2C mouse CD8+ T cells, at 7 µM, stronger effect = lower value; measured here: CD8+/vesicle+ event percentage
ASSAY READOUT: double positive events (%)

* CCOc1ccc(N2C(=O)CNC2=S)cc1 | 66.1
* CCCC(=O)O[C@]1(C(=O)CCl)[C@@H](C)C[C@H]2[C@@H]3CCC4=CC(=O)C=C[C@]4(C)[C@@]3(F)C(=O)C[C@@]21C | 65.1
* CCc1cc2c(C)cc(=O)oc2cc1OC(=O)C1CCCN1C(=O)OC(C)(C)C (stereo not given) | 57.4
* O=C(NCC1CCCO1)c1ccc(OC2CCN(C(=O)C3CC3)CC2)cc1 (stereo not given) | 63.1
* O=C(O)CCNC(=O)c1ccccc1 | 65.7

* * *

# PROTOCOL: AML differentiation inducers, ER-HoxA9 marrow cells – cell-based, GFP/MAC1 double positive, flow cytometry, validation set, primary screen (AID 588685);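 also: compound exposure lasts four days before antibody staining and flow analysis; 0% = DMSO wells and 100% = 5 µM fulvestrant positive control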
# SETUP CONDITIONS: stronger effect = higher value, normalized: vehicle 0, fulvestrant 100
ASSAY READOUT: differentiation response (%)

• COc1ccc2[nH]c(=O)c3c(c2c1)OC(C)(C)C=C3 = 8.8
• O=C(NC1CCCCC1)c1cc2nc(-c3ccco3)cc(C(F)(F)F)n2n1 = 20.5
• CCOC(=O)C1(Cc2cccc(Cl)c2)CCCN(C2CCN(C(C)=O)CC2)C1 (stereo unspecified) = -0.73
• CC1(CC(=O)Nc2ccccc2)NC(=S)N(c2ccccc2)N1 (stereo unspecified) = -18.4
• NNC(=O)c1cc(O)c(O)c(O)c1 = -2.69
• COc1ccc(CCN(C)CCCC(C#N)(c2cc(OC)c(OC)c(OC)c2)C(C)C)cc1OC (stereo unspecified) = 3.18
• COc1ccc(/C=C2\CC/C(=C\c3ccc(OC)c(OC)c3)C2=O)cc1OC = -5.68
• CCOc1ccc(C(=O)NC(C)C2COc3ccccc3O2)cc1 (stereo unspecified) = 4.86
• CC1=C(C)C(=O)C(CCCCC#CCCCC#CCO)=C(C)C1=O = 5.85
• Cn1nnnc1SCC1=C(C(=O)O)N2C(=O)[C@@H](NC(=O)[C@H](O)c3ccccc3)[C@H]2SC1 = 15.6
• OCC1CCN(Cc2cn(Cc3ccccc3)nc2-c2cc3ccccc3o2)CC1 = 10

* * *

Measured aptamer binding inhibition, listed per entry for reference.
# EXPERIMENTAL TARGET: Beta-adrenergic receptor kinase 1 (Homo sapiens) (UniProt P25098)
# Sequence (P25098 whole entry, looked up): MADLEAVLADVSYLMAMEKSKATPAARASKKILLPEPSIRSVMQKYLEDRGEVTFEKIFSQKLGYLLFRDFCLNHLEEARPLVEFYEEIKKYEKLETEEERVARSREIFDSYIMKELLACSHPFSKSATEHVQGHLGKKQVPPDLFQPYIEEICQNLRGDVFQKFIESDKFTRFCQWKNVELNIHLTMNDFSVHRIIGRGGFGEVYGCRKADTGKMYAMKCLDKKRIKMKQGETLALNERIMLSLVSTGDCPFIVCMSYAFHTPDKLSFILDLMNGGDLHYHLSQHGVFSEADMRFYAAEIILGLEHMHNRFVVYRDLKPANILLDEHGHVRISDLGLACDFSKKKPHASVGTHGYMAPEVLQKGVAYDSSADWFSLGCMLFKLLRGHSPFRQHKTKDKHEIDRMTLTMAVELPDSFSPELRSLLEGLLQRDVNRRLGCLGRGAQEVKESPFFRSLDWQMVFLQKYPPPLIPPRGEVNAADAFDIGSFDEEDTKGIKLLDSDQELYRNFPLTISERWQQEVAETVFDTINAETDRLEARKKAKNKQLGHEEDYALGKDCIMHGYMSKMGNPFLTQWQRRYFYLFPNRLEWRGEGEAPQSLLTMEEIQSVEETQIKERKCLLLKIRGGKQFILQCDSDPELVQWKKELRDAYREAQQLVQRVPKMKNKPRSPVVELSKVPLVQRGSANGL
# PROTOCOL: GRK2 binders displacing RNA aptamer, biochemical, validation, human GRK2, bead flow cytometry (AID 488806)
# SETUP CONDITIONS: bead-bound GRK2, FAM-aptamer displacement, at 10 µM, stronger effect = higher value
ASSAY READOUT: aptamer binding inhibition (%)

• N/C(=N\OC(=O)c1cccc(Br)c1)c1ccncc1 = -2
• CCCC(=O)O[C@]1(C(=O)CCl)[C@@H](C)C[C@H]2[C@@H]3CCC4=CC(=O)C=C[C@]4(C)[C@@]3(F)C(=O)C[C@@]21C = 3
• CCCCCCC(=O)N(O)C1CC(=O)N(Cc2ccccc2)C1=O (centres undefined) = 1
• CCOC(=O)c1cc2c(nc1N)CC(C)(CC)OC2 (centres undefined) = -1
• Cc1ccc(C2CC(c3cccs3)=NN2C(=O)c2ccco2)o1 (centres undefined) = -1
• COc1ccc(OCc2cccc(C(=O)NN)c2)cc1 = 8
• COc1ccc(C2C(C(=O)c3ccco3)=C(O)C(=O)N2CC2CCCO2)cc1 (centres undefined) = 3
• OC(CCN1CCCCC1)(c1ccccc1)c1ccccc1 = 2
• CCOc1ccc(NC2OC(C)C(O)C(O)C2O)c([N+](=O)[O-])c1 (centres undefined) = 2
• NNC(=O)c1cc(O)c(O)c(O)c1 = 4
• O=C(O)CCCCCNC(=O)Nc1ccc2c(c1)OCCO2 = -3
• COC(=O)c1[nH]c2ccc(C)cc2c1NC(=O)CN1CCc2cc(OC)c(OC)cc2C1 = 4
• O=C(O)[C@@H](O)c1ccccc1 = 3
• C/C(=N\NC(=O)c1ccccc1[N+](=O)[O-])c1ccc(Br)s1 = 2
• C[C@H]([C@@H](N)C(=O)N[C@@H](C(=O)O)[C@@H]1O[C@H](n2ccc(=O)[nH]c2=O)[C@@H](O)[C@H]1O)[C@@H](O)c1ccc(O)cn1 = 7
• COc1ccc2c(c1OC)C(=O)N1C2SC[C@H]1C(=O)NC1CC(C)(C)NC(C)(C)C1 (some centres undefined) = 6
• CC(C)c1ccc(/C=C/C(=O)O)cc1 = 3
• CC12CCC(C(=O)NCc3ccccn3)(OC1=O)C2(C)C (centres undefined) = 0
• O=C(O)C(O)c1ccccc1 (centres undefined) = 5
• COc1ccccc1N1CCN(CC(O)COc2cccc3ccccc23)CC1 (centres undefined) = 6
• CC(=O)c1cccc(NC(=O)N[C@@H](CC(C)C)C(=O)O)c1 = -2
• Cc1ccc2c(c1)C(O)(C1COC(C)(C)CC1=O)C(=O)N2C (centres undefined) = 2
• COc1ccc2c(C=O)cn(C)c2c1 = 7
• CCOC(=O)c1c(O)c2c([nH]c1=O)CCCC2 = 3
• COc1ccc(/C=C(/C#N)c2cccnc2)cc1OC = 3
• COc1ccc(C2c3c(n[nH]c3C)CC(C)(O)C2C(C)=O)cc1OC (centres undefined) = 4
• Cc1ccc2nc(N=C(N)N)nc(C)c2c1 = -1
• CC(C)=CCC/C(C)=C/CC/C(C)=C/CC/C(C)=C/CC1=C(C)C(=O)c2ccccc2C1=O = 2
• CCOc1ccc2[nH]c3c(=O)n(CCc4ccc(OC)cc4)cnc3c2c1 = 0
• COc1ccccc1OCC(O)COC(N)=O (centres undefined) = 1
• Cc1cc(OC(=O)CNC(=O)OC(C)(C)C)c2c(C)cc(=O)oc2c1 = 3
• CC(=O)NS(=O)(=O)c1ccc(N)cc1 = 2
• Cc1cc(O)c(C(C)C)cc1C1(c2cc(C(C)C)c(O)cc2C)OC(=O)c2ccccc21 = -2
• CC(C)Oc1ccc2c(=O)c(-c3ccccc3)coc2c1 = 0
• O=Cc1ccc(O)c(O)c1 = 6
• O=C(NCCO)c1ccc2[nH]c3ccccc3c2c1 = 2
• CCOC(=O)c1ncn2c1CN(C)C(=O)c1cc(F)ccc1-2 = 1
• CCOC(=O)C(Cc1cc(C(C)=O)ccc1OC(C)C)C(=O)OCC = 4
• CC(=O)[C@@H]1[C@@H](C(=O)c2ccc(C)cc2)[C@]2(C(=O)Nc3ccccc32)[C@H]2C=Cc3cc(F)ccc3N12 = 4

* * *

# PROTOCOL: TOR pathway RTG branch CIT2 reporter changes – S. cerevisiae, GFP fusion, multiplex flow cytometry, primary screen (AID 1870);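 also: barcoded CIT2-GFP strain pooled with four other GFP strains with rapamycin as positive control; median GFP fluorescence per well over plate mean of DMSO wells so 100% = DMSO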
# SETUP CONDITIONS: S. cerevisiae CIT2-GFP expression, 3 h, at 10 µM, stronger effect = higher value
ASSAY READOUT: percent response of DMSO control (%)

* CN(C)CCCN1c2ccccc2Sc2ccccc21 | 99.6
* Cn1c(SCC(=O)c2ccccc2)nnc1-c1ccncc1 | 99.6
* Cc1ccc(S(=O)(=O)NC(C(=O)Oc2cc3oc(=O)cc(C)c3cc2Cl)C(C)C)cc1 (stereo not given) | 97.7
* CN(C)CCN(Cc1ccccc1)c1ccccn1 | 97.9
* Cc1onc(-c2c(Cl)cccc2Cl)c1C(=O)NC1C(=O)N2C1SC(C)(C)C2C(=O)O (stereo not given) | 100
